# mTGR5 % trans per entry
Target: mTGR5 (Mus musculus, UniProt Q80SS6)
Construct: expressed in transfected cells; host or cells: HEK293 cells, transiently co-transfected with the pCRE TA-Luciferase reporter
Sequence (Q80SS6 whole entry): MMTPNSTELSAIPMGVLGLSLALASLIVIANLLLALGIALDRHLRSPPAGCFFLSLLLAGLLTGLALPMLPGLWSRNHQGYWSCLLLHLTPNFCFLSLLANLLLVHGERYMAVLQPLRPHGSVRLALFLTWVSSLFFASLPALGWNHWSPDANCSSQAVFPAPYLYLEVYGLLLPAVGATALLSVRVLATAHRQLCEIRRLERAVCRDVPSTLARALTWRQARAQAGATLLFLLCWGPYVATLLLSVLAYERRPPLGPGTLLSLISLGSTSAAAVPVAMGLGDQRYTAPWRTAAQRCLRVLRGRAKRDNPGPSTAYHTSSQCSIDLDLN
Assay: TGR5/CRE Luciferase Assay (mTGR5)
Format: cell-based
Details: percentage of the 10 μM LCA value; HEK 293 cells transfected with mTGR5
value_kind: mTGR5 % trans (%)

> print(dat)
                                    compound  test.value
 1  COCCN1C(=O)CC(c2ccc(Cl)cc2)C(C(=O)OCCc2ccccc2)=C1C (centres unmarked)          42
 2  CC1=C(C(=O)OCc2ccccc2)C(c2ccc(F)cc2)CC(=O)N1 (centres unmarked)          37
 3  COCCN1C(=O)CC(c2ccc(Cl)cc2)C(C(=O)OCc2ccccc2F)=C1C (centres unmarked)          71
 4  COc1ccccc1COC(=O)C1=C(C)N(C[C@H]2CCCO2)C(=O)C[C@H]1c1ccc(Cl)c(Cl)c1 (racemic)          89
 5  CC1=C(C(=O)OCc2ccccc2)C(c2ccccc2)CC(=O)N1 (centres unmarked)          18
 6  COCCCN1C(=O)CC(c2ccc(Cl)cc2)C(C(=O)OCc2ccccc2OC)=C1C (centres unmarked)          85
 7  COCCN1C(=O)CC(c2ccc(Cl)cc2)C(C(=O)OCc2ccc(C#N)cc2)=C1C (centres unmarked)          76
 8  COc1cccc(C2CC(=O)NC(C)=C2C(=O)OCc2ccccc2)c1 (centres unmarked)          34
 9  C=CCN1C(=O)CC(c2ccc(Cl)cc2)C(C(=O)OCc2ccccc2)=C1C (centres unmarked)          54
10  COCCN1C(=O)CC(c2ccc(Cl)cc2)C(C(=O)OCc2ccc(Cl)cc2)=C1C (centres unmarked)          84
11  CC1=C(C(=O)OCc2ccccc2)C(c2ccc(C(F)(F)F)cc2)CC(=O)N1 (centres unmarked)          37
12  COCCN1C=C(C(=O)NCc2ccccc2)C(c2ccc(Cl)cc2)CC1=O (centres unmarked)          14
13  COCCN1C(=O)CC(c2ccc(Cl)cc2)C(C(=O)OCc2cccc(OC)c2)=C1C (centres unmarked)          95
14  COCCN1C(=O)CC(c2ccc(-c3ccccc3)cc2)C(C(=O)OCc2ccccc2)=C1C (centres unmarked)          10
15  CC1=C(C(=O)OCc2ccc(C)cc2)C(c2ccc(Cl)cc2)CC(=O)N1C (centres unmarked)          73
16  CC1=C(C(=O)OCc2ccccc2)C(c2ccc(Cl)cc2)CC(=O)N1CCN1CCCCC1 (centres unmarked)           3
17  CCN1C(=O)CC(c2ccc(Cl)cc2)C(C(=O)OCc2ccccc2)=C1C (centres unmarked)          70

src = patent US9932309B2
